Test system: LOX IMVI melanoma
Experiment: NCI tumour cell line growth inhibition, 48 h
value kind: TGI (µM)
Field format: number, assumed µM, no unit text.

Clc1cccc(Cl)c1C1SCC2=Nc3ccccc3CN21 (centres undefined) : 41.1
CSc1ccc(C2C(Cl)C(=O)N2NC(=O)c2c(Cl)c(Cl)c(Cl)c(Cl)c2-c2nc3ccccc3[nH]2)cc1 (centres undefined) : 15.6
O=C1NC(Nc2cccc(Cl)c2)=N/C1=C\c1ccc(Cl)c(Cl)c1 : 4.26

Query: Please report the recorded TGI for `COC(=O)[C@]12CCC(C)(C)C[C@H]1C1=CC[C@@H]3[C@@]4(C)C/C(=C/c5cccnc5)C(=O)C(C)(C)[C@@H]4CC[C@@]3(C)[C@]1(C)CC2` .
Result: 17.8

====

In this section, each of the compounds is paired with its reported TGI.
Tested on: MDA-MB-435
Assay: NCI tumour cell line growth inhibition, 48 h
# number only, unit µM dropped from output

Query: Name the reported TGI value associated with the compound `CC(C)CSc1nc(Nc2ccccc2)c(C#N)c(-c2ccc(F)cc2)n1`
Result: 42.2

Query: And what about the compound `COc1ccc(/C(=N/Nc2ccc([N+](=O)[O-])cc2)Sc2cc(Cl)c(C)cc2S(N)(=O)=O)cc1` ?
Result: 13.3

Query: And what about the compound `C/C(=N\NC(=S)N1CC2CCC(CC2)C1)c1ccncn1` ?
Result: 5.9

Query: Please answer likewise for `CC(=O)[O][Hg][c]1c(C)c(C)c(C)c(C)c1C`
Result: 3.09

====

List of TGI values.
Test system: HCC-2998 colon
Assay: NCI tumour cell line growth inhibition, 48 h

Use these answered entries as a reference point.
CC[C@H](C)[C@H](NC(=O)[C@H]1CCCCN1C)C(=O)N(C)[C@H](CCc1nc(C(=O)N[C@@H](Cc2ccccc2)C[C@H](C)C(=O)OC)cs1)C(C)C : > 13.4 µM
C=C1C(=O)O[C@H]2[C@H]1CC/C(COC(=O)/C=C\C(=O)NCc1ccc(Cn3c(=O)sn(-c4ccc(C#N)cc4)c3=O)cc1)=C\CC[C@@]1(C)O[C@@H]21 : 1.76 µM
CN(C)C(=S)/N=c1\ss/c(=N\C(=S)N(C)C)n1-c1ccc2c(c1)OCO2 : > 100 µM
COc1ccc2c(c1)CCCc1cn[nH]c1-2 : > 100 µM
CNC1C(=O)C(C)C(O)(C(CC(C)C(O)/C=C/C=C/CNC(=O)C(C)(C)C(O)\C(C)=C/C=C\C=C\Cc2cnc(C)o2)OC)C12C(=O)OC2COC (centres undefined) (tested in a mixture with another compound) : 41.7 µM
N#CCCN(CCC#N)c1ccc(C(=O)NN)cc1 : > 100 µM
Cn1cc(C2=C(c3cn(C)c4c(N)cccc34)C(=O)NC2=O)c2ccccc21 : > 25 µM
COC1(OC)C2(Cl)CCC1(Cl)C(OC(C)=O)C2 (centres undefined) : > 100 µM

Query: Would you mind telling me what TGI value was observed for `COC(=O)CSc1n[nH]c(-c2ccc(O)c([N+](=O)[O-])c2)n1` ?
Result: > 100 µM

Query: Note, next up: `NC(N)=NC(N)=Nc1cc2ccccc2c2ccccc12`
Result: 24.2 µM

Query: Follow-up entry: CCCCNC(=O)NS(=O)(=O)c1ccc(N2N=C(c3ccc(C)cc3C)CC2c2ccc(N(C)C)cc2)cc1 (centres undefined)
Result: 5.1 µM

Query: Thanks! And `N#Cc1cnsc1` ?
Result: > 100 µM

Query: Now give it for `CCCCn1c(C)c(C(=O)OCC)c2cc(OCc3ccc(C(=O)Nn4c(C)ccc4C)cc3)c(Br)cc21` too.
Result: > 100 µM

Query: Follow-up item: `COc1cc(Cn2c(-c3ccccc3)cc3c2-c2oncc2CC3)cc(OC)c1OC`
Result: > 100 µM

Query: Check `CC(C)NC(=O)OCc1c(COC(=O)NC(C)C)c(-c2ccc[n+](COC(=O)CC(C)(C)C)c2)n2c1CCC2` too.
Result: > 100 µM
